# System name: human TRPM8 (Homo sapiens)
# Sequence (Q7Z2W7 whole entry): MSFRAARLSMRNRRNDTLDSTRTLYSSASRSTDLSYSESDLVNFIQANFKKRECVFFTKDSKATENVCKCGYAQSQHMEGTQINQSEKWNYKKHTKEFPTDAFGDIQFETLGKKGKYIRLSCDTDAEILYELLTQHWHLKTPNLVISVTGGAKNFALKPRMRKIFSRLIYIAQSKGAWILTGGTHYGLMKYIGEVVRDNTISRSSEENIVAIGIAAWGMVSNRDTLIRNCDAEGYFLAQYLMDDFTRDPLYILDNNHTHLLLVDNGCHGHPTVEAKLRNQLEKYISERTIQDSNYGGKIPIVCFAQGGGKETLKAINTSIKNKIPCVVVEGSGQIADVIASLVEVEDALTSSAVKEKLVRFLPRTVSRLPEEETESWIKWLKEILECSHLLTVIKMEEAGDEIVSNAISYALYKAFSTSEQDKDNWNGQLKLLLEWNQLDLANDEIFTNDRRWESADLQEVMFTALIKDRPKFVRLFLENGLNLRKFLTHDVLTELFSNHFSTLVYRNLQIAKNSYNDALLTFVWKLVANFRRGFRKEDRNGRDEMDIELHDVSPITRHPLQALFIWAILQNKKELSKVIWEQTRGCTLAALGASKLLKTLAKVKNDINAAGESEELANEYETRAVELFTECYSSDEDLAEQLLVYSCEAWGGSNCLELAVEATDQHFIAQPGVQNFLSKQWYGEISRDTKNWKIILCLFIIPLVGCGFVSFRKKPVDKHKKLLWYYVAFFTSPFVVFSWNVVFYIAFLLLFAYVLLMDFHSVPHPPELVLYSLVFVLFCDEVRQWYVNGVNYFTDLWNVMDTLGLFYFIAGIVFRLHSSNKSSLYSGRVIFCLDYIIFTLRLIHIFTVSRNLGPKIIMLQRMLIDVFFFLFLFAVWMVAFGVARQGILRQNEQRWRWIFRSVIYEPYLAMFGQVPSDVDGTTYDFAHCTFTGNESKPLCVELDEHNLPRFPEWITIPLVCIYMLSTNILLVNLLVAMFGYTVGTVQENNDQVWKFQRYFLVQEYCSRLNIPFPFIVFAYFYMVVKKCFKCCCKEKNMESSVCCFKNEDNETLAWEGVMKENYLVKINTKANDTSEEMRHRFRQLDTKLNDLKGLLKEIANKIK
# Measurement notes: Menthol-induced Ca2+ influx in HEK293 cells stably expressing human TRPM8
# Measurement conditions: 30 microM menthol-induced Ca2+ influx, read-out: IC50 against TRPM8
pIC50: −log10 of the molar value.
Form field: pIC50 (one value per entry).

See these solved cases before continuing.
>  <Molecule>
Cn1c(-c2cccnc2)cnc1C(=O)CN1C(=O)NC2(CCC(F)(F)CC2)C1=O [Example 17-15]

>  <pIC50>
> 6.30

$$$$
>  <Molecule>
O=C(CN1C(=O)NC2(CCC(F)(F)CC2)C1=O)c1ccc(-n2c(C(F)F)nc3cccnc32)cc1 [Example 24-1]

>  <pIC50>
> 7.00

$$$$
>  <Molecule>
CCc1nc2cccnc2n1-c1ccc(C(=O)CN2C(=O)NC3(CCC(F)(F)CC3)C2=O)cc1 [Example 24-2]

>  <pIC50>
> 6.30

$$$$
>  <Molecule>
O=C(CN1C(=O)NC2(CCC(F)(F)CC2)C1=O)c1ccc(-c2nncc3ccccc23)cc1 [Example 6-18]

>  <pIC50>
> 7.00

$$$$
>  <Molecule>
O=C(CN1C(=O)NC2(CCC(F)(F)CC2)C1=O)c1ccc(-n2c(CO)nc3ccccc32)cc1 [Example 5-15]

>  <pIC50>
> 7.00

$$$$

Lab note: O=C(CN1C(=O)NC2(CCC(F)(F)CC2)C1=O)c1ccc(-c2cccc3[nH]ccc23)cc1 [Example 13-42] gave pIC50 of > 7.00

Lab note: Cc1cncc(-n2c(C)cc(C(=O)CN3C(=O)NC4(CCCCC4)C3=O)c2C)c1 [Example 3-11] gave pIC50 of > 7.00

Lab note: Cc1cc(C(=O)CN2C(=O)NC3(CCC(F)(F)CC3)C2=O)n(C)c1-c1cccnc1 [Example 16-11] gave pIC50 of > 7.00
